System: A431
test.summary: Cell activity test of camptothecin chiral derivatives (MTS)
Format: cell-based
protocol.conditions: Homo sapiens, A-431, 72 h
readout: IC50 (nM)

structure	unit.text	recorded.measurement
CC[C@@]1(O)C(=O)OCc2c1cc1n(c2=O)Cc2c-1nc1cc(F)c(C)c3c1c2[C@H](NC(=O)CO)CC3	nM	4.5

---

test.summary: Log P value test (partition coefficient in n-octane (oil) and water)
Type: physicochemical
protocol.conditions: n-octane (oil) / water; read-out: LogP

structure	logD hydrocarbon water
CC[C@@]1(O)C(=O)OCc2c1cc1n(c2=O)Cc2c-1nc1cc(F)c(C)c3c1c2[C@H](NC(=O)CO)CC3	1.8
